Reported SPOT intensity values for a set of binders
# ASSAYED_TARGET: Bem1-2, P29366
# Sequence (P29366 139-227): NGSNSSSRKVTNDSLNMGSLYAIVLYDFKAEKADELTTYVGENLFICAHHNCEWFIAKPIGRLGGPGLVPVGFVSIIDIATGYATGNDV
# TEST_METHOD_NOTES: SPOT array
# CONDITIONS: median of control spots 4347
The answer should be written as a number, with no unit following it.

BINDER	VAL
KNPRRQLQIPRQQPS	1
ANNQGPPNLPARDKS	0
LFMKGTPEFPKSGFS	0
LKRITSPPLPPRADS	0

Turning to the following binder.
// SPOT intensity value for "LKQRFFLMFPKSIIW" : 1

The reported measurements were obtained from paper PMC2756588.
